Biological target: Thioredoxin reductase (Mycobacterium tuberculosis) (UniProt P9WHH1)
Sequence (P9WHH1 whole entry): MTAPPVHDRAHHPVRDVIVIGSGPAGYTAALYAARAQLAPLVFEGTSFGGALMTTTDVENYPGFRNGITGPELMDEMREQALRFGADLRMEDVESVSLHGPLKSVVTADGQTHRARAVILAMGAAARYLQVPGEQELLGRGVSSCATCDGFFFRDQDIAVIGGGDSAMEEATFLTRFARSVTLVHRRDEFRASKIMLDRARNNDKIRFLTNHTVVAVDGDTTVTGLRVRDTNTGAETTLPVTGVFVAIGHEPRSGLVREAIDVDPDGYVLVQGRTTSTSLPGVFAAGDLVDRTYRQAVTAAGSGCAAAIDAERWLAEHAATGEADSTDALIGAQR
Test: Inhibition of Mycobacterium tuberculosis TrxR at 1.67 uM after 10 mins by microplate reader analysis
Measured metric: inhibition (%)
# unit: % | format: bare number

Molecule | Target or test system | Obs value
CC(c1c[nH]nc1-c1ccccc1)N1CCC(CCC(=O)Nc2ccccc2)CC1 (stereo not drawn) | Thioredoxin reductase (Mycobacterium tuberculosis) (UniProt P9WHH1) | 29.7
c1ccc2sc(CNc3ccc(N4CCCCC4)cc3)nc2c1 | Thioredoxin reductase (Mycobacterium tuberculosis) (UniProt P9WHH1) | 24
Fc1cccc(Cl)c1CNc1ccc(N2CCCCC2)cc1 | Thioredoxin reductase (Mycobacterium tuberculosis) (UniProt P9WHH1) | 30
NC1=C(c2nc(-c3ccccc3)cs2)C(=O)CN1c1ccc(S(N)(=O)=O)cc1 | Thioredoxin reductase (Mycobacterium tuberculosis) (UniProt P9WHH1) | 8.4
O=C(O)[C@H](Cc1cc2ccccc2[nH]1)NCc1c[nH]c2ccccc12 | Thioredoxin reductase (Mycobacterium tuberculosis) (UniProt P9WHH1) | 26.7

inhibition for `O=C(Nc1ccc(N2CCC(NCCOc3cccnc3)CC2)cc1)c1cnccn1` ?
5

Item `O=C(CCCCc1ccccc1)Nc1ccc(N2CCC(NCCn3cccn3)CC2)cc1` has what recorded inhibition?
12.3

Field request: inhibition | item: `O=C(COc1ccccc1)Nc1ccc(N2CCC(NCc3cccc(-n4cccn4)c3)CC2)cc1`
11.2

Recorded values, source ChEMBL document CHEMBL2390881.
